Below, each entry is listed alongside its reported EC50.
Molecular target: NL20 human bronchial epithelial cells expressing human Z-AAT (Homo sapiens (Human), UniProt P01009, E366K)
Sequence (P01009 25-418 E366K limits assumed): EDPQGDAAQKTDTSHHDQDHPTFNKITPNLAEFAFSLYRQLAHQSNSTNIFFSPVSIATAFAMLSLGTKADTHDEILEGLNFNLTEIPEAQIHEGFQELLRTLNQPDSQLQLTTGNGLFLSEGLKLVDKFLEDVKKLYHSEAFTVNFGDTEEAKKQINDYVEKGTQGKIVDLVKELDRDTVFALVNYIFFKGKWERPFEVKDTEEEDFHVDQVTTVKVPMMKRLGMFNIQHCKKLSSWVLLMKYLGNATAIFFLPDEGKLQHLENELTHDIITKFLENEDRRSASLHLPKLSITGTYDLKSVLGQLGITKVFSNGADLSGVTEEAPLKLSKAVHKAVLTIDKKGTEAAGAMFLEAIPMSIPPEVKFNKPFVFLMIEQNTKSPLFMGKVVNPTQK
Test: AAT Function Assay (MSD Assay NL20-SI Cell Line)
Settings: functionally active AAT (AAT-hNE complex, MSD) in supernatant of NL20 cells expressing human Z-AAT; read-out: NL20 Functional EC50

INSERT INTO assay_data (compound, parameter_measured, result) VALUES
  ('Cc1cc(-n2c(C(C)C)c([C@H]3CC[C@H](C(=O)O)C3)c3cc(O)ccc32)ccc1F (racemic)', 'EC50', '500 to 2000 nM'),
  ('Cc1cc(-n2c([C@@H]3CCOC3)c([C@H]3C[C@H](C(=O)O)C3)c3cc(O)ccc32)ccc1F', 'EC50', '> 2000 nM'),
  ('Cc1cc(-n2c(C(C)C)c([C@H]3C[C@@H](C(=O)O)C3)c3cc(O)ccc32)ccc1F [Compound 98]', 'EC50', '> 2000 nM');

What does the record list as EC50 for `Cc1cc(-n2c(C(C)C)c(CC(=O)O)c3cc(O)ccc32)ccc1F` ?
> 2000 nM

What does the record list as EC50 for `O=C(O)[C@]1(C(F)(F)F)C[C@@H](c2c(C3CCOCC3)n(-c3ccc(F)c(F)c3)c3ccc(O)cc32)C1` ?
> 2000 nM

What does the record list as EC50 for `Cc1cc(-n2c(C3CCOCC3)c([C@H]3C[C@](CF)(C(=O)O)C3)c3cc(O)ccc32)ccc1F` ?
500 to 2000 nM

What does the record list as EC50 for Cc1cc(-n2c(C(C)C)c(C3COC(C(=O)O)C3)c3cc(O)ccc32)ccc1F (centres unmarked) ?
> 2000 nM

What does the record list as EC50 for N#Cc1c(C2CCCO2)n(-c2ccc(F)cc2)c2ccc(O)cc12 (centres unmarked) ?
> 2000 nM

What does the record list as EC50 for `COCC(C)(C)c1c(-c2ccc(C(=O)O)cc2)c2c(Cl)c(O)ccc2n1-c1ccc(F)cc1` ?
< 500 nM

What does the record list as EC50 for Cc1cc(-n2c(C(C)C)c(C3CC(C(=O)O)C3)c3cc(O)ccc32)ccc1F (centres unmarked) ?
> 2000 nM

What does the record list as EC50 for CC(C)c1c(C2CC3(CC(C(=O)O)C3)C2)c2cc(O)ccc2n1-c1ccc(F)cc1 (centres unmarked) ?
500 to 2000 nM
